- Tested on: NCI-H69 (H69) cell line
- PROTOCOL DESCRIPTION: Cell viability assay for NCI-H69 cell line
- Format: cell-based
- CONDITION CONTEXT: Homo sapiens, NCI-H69, 120 h, 5 days, EZ-Cytox, 0.46-3000 nM
RECORDED METRIC: IC50

Here's what some known entries look like.
CC[C@@H]1C(=O)N(C)c2cnc(Nc3ccc(C(=O)NC4CCC(N5CCN(CCc6ccc(C7CCC(=O)NC7=O)cc6)CC5)CC4)cc3OC)nc2N1C1CCCC1 (some centres unmarked) [Compound 20] :: < 20 nM
COc1cc(C(=O)NN2CCC(C(N)CN3CCN(c4ccc(C5CCC(=O)NC5=O)cc4F)CC3)CC2)ccc1Nc1ncc2c(n1)N(C(C)C)CC(F)(F)C(=O)N2C (centres unmarked) [Compound 31] :: ≤ 50 nM
CC[C@@H]1C(=O)N(C)c2cnc(Nc3ccc(C(=O)N[C@H]4CC[C@H](NCC5CCN(c6ccc(C7CCC(=O)NC7=O)nc6)CC5)CC4)cc3OC)nc2N1C1CCCC1 (some centres unmarked) [Compound 25] :: < 20 nM
COc1cc(C(=O)NC2CCN(C(=O)CCN3CCN(c4ccc(NC5CCC(=O)NC5=O)cc4)CC3)CC2)ccc1Nc1ncc2c(n1)N(C1CCCC1)CC1(CC1)C(=O)N2C (centres unmarked) [Compound 29] :: ≤ 100 nM

Then there is this compound:
Prompt: Return reported IC50; argument: CC[C@@H]1C(=O)N(C)c2cnc(Nc3ccc(-c4nnc(CNC5CCC(NCC6CCN(c7ccc(C8CCC(=O)NC8=O)cc7F)CC6)CC5)o4)cc3OC)nc2N1C1CCCC1 (some centres unmarked) [Compound 17]
Completion: ≤ 50 nM

----------
- TEST SYSTEM: PLK1 (Homo sapiens, UniProt P53350)
- Construct: endogenous in cells; host or cells: HeLa LgBit (PLK1-HiBit KI): HeLa cells stably expressing LgBit, with CRISPR/Cas9 knock-in of HiBit at the endogenous PLK1 locus
- Sequence (P53350 whole entry): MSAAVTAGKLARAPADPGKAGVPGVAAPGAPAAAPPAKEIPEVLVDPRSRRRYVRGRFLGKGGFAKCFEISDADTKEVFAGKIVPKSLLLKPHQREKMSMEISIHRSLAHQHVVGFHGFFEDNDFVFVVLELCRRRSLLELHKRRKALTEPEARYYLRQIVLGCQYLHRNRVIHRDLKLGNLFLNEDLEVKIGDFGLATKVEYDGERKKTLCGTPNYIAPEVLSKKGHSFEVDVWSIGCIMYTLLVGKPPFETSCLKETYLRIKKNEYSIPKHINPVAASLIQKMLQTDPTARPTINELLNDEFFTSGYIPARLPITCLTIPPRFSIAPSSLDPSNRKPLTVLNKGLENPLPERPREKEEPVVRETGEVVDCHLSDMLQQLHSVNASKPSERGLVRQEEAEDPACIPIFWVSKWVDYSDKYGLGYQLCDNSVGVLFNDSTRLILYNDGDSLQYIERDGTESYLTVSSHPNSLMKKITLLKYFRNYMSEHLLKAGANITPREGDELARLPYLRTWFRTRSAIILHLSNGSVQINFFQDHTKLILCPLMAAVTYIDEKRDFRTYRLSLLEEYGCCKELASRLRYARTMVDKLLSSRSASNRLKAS
- PROTOCOL DESCRIPTION: Luciferase assay for PLK1 in HeLa LgBit (PLK1-HiBit KI) cell line
- Assay type: cell-based
- CONDITION CONTEXT: released after thymidine block, compound 300 nM, luminescence after 9 hours
RECORDED METRIC: Value (luminescence value, PLK1-HiBit)
Reply briefly: the number, and no unit.

CC[C@@H]1C(=O)N(C)c2cnc(Nc3ccc(C(=O)NN4CCC(N5CCC(CNc6ccc(C7CCC(=O)NC7=O)cc6)CC5)CC4)cc3OC)nc2N1C1CCCC1 (some centres unmarked) [Compound 21] :: 0.144
CC[C@@H]1C(=O)N(C)c2cnc(Nc3ccc(C(=O)NC4CCC(NCC5CCN(c6ccc(C7CCC(=O)NC7=O)cc6F)CC5)CC4)cc3OC)nc2N1C1CCCC1 (some centres unmarked) [Compound 18] :: 0.111
COc1cc(C(=O)NN2CCC(C(N)CN3CCN(c4ccc(C5CCC(=O)NC5=O)cc4F)CC3)CC2)ccc1Nc1ncc2c(n1)N(C(C)C)CC(F)(F)C(=O)N2C (centres unmarked) [Compound 31] :: 0.241
COc1cc(C(=O)NC2CCN(C(=O)CCN3CCN(c4ccc(NC5CCC(=O)NC5=O)cc4)CC3)CC2)ccc1Nc1ncc2c(n1)N(C1CCCC1)CC1(CC1)C(=O)N2C (centres unmarked) [Compound 29] :: 0.267
CC[C@@H]1C(=O)N(C)c2cnc(Nc3ccc(-c4nnc(CNC5CCC(NCC6CCN(c7ccc(C8CCC(=O)NC8=O)cc7F)CC6)CC5)o4)cc3OC)nc2N1C1CCCC1 (some centres unmarked) [Compound 17] :: 0.172
CC[C@@H]1C(=O)N(C)c2cnc(Nc3ccc(C(=O)NC4CCN(C(=O)C(N)CN5CCN(c6ccc(C7CCC(=O)NC7=O)cc6)CC5)CC4)cc3OC(F)(F)F)nc2N1C1CCCC1 (some centres unmarked) [Compound 10] :: 0.282
CC[C@@H]1C(=O)N(C)c2cnc(Nc3ccc(C(=O)NC4CCN(C(=O)C(N)CN5CCN(c6ccc(C7CCC(=O)NC7=O)cc6)CC5)CC4)cc3OC)nc2N1C1CCCC1 (some centres unmarked) [Compound 11] :: 0.234
CC[C@@H]1C(=O)N(C)c2cnc(Nc3ccc(C(=O)NC4CCC(N5CCC(CNCc6ccc(C7CCC(=O)NC7=O)cc6)CC5)CC4)cc3OC)nc2N1C1CCCC1 (some centres unmarked) [Compound 7] :: 0.214
CC[C@@H]1C(=O)N(C)c2cnc(Nc3ccc(C(=O)NC4CCC(N5CCC(NCc6ccc(C7CCC(=O)NC7=O)cc6)CC5)CC4)cc3OC)nc2N1C1CCCC1 (some centres unmarked) [Compound 8] :: 0.279
CC[C@@H]1C(=O)N(C)c2cnc(Nc3ccc(C(=O)NCC4CCN(CC5CCN(c6ccc(NC7CCC(=O)NC7=O)cc6)CC5)CC4)cc3OC)nc2N1C1CCCC1 (some centres unmarked) [Compound 13] :: 0.165

Then there is this molecule:
Prompt: Return reported Value (luminescence value, PLK1-HiBit); argument: CC[C@@H]1C(=O)N(C)c2cnc(Nc3ccc(C(=O)NC4CCC(N5CCC(NCc6cccc7c6CN(C6CCC(=O)NC6=O)C7=O)CC5)CC4)cc3OC)nc2N1C1CCCC1 (some centres unmarked) [Compound 12]
Completion: 0.372

----------
- TEST SYSTEM: PLK1 (Homo sapiens)
- Construct: endogenous in cells; host or cells: HeLa LgBit (PLK1-HiBit KI): HeLa cells stably expressing LgBit, with CRISPR/Cas9 knock-in of HiBit at the endogenous PLK1 locus
- PROTOCOL DESCRIPTION: Luciferase assay for PLK1 in HeLa LgBit (PLK1-HiBit KI) cell line
- Assay type: cell-based
- CONDITION CONTEXT: released after thymidine block, compound 300 nM, luminescence after 9 hours
Measured Value (luminescence value, PLK1-HiBit), listed per entry.
Reply briefly: the number, and no unit.

Here's what some known entries look like.
CC[C@@H]1C(=O)N(C)c2cnc(Nc3ccc(C(=O)NN4CCC(C(N)CN5CCN(c6ccc(C7CCC(=O)NC7=O)cc6F)CC5)CC4)cc3OC)nc2N1C1CCCC1 (some centres unmarked) :: 0.132
CC[C@@H]1C(=O)N(C)c2cnc(Nc3ccc(C(=O)NC4CCC(N5CCN(CCc6ccc(NC7CCC(=O)NC7=O)cc6)CC5)CC4)cc3OC)nc2N1C1CCCC1 (some centres unmarked) :: 0.157
CC[C@@H]1C(=O)N(C)c2cnc(Nc3ccc(C(=O)N[C@H]4CC[C@H](NCC5CCN(c6ccc(C7CCC(=O)NC7=O)nc6)CC5)CC4)cc3OC)nc2N1C1CCCC1 (some centres unmarked) :: 0.144

Prompt: Return reported Value (luminescence value, PLK1-HiBit); argument: CC[C@@H]1C(=O)N(C)c2cnc(Nc3ccc(C(=O)NC4CCN(C(=O)C(N)CN5CCN(c6cccc7c6C(=O)N(C6CCC(=O)NC6=O)C7=O)CC5)CC4)cc3OC)nc2N1C1CCCC1 (some centres unmarked)
Completion: 0.377

Prompt: Next entry: CC[C@@H]1C(=O)N(C)c2cnc(Nc3ccc(C(=O)NC4CCC(N5CCC(CNc6cccc7c6CN(C6CCC(=O)NC6=O)C7=O)CC5)CC4)cc3OC)nc2N1C1CCCC1 (some centres unmarked)
Completion: 0.286

----------
- TEST SYSTEM: PLK1 (Homo sapiens)
- Construct: endogenous in cells; host or cells: HeLa LgBit (PLK1-HiBit KI): HeLa cells stably expressing LgBit, with CRISPR/Cas9 knock-in of HiBit at the endogenous PLK1 locus
- PROTOCOL DESCRIPTION: Luciferase assay for PLK1 in HeLa LgBit (PLK1-HiBit KI) cell line
- Type: cell-based
- CONDITION CONTEXT: released after thymidine block, compound 300 nM, luminescence after 9 hours
RECORDED METRIC: Value (luminescence value, PLK1-HiBit)
Reply briefly: the number, and no unit.

CC[C@@H]1C(=O)N(C)c2cnc(Nc3ccc(C(=O)NC4CCC(N5CCN(CCCc6ccc(NC7CCC(=O)NC7=O)cc6)CC5)CC4)cc3OC)nc2N1C1CCCC1 (some centres unmarked) :: 0.253

Prompt: Return reported Value (luminescence value, PLK1-HiBit); argument: CC[C@@H]1C(=O)N(C)c2cnc(Nc3ccc(C(=O)NC4CCN(C5CCN(CCc6ccc(C7CCC(=O)NC7=O)cc6)CC5)CC4)cc3OC)nc2N1C1CCCC1 (some centres unmarked)
Completion: 0.145

Prompt: Next entry: CC[C@@H]1C(=O)N(C)c2cnc(Nc3ccc(-c4nnc(CNC5CCN(C(=O)C(N)CN6CCN(c7ccc(C8CCC(=O)NC8=O)cc7)CC6)CC5)o4)cc3OC)nc2N1C1CCCC1 (some centres unmarked)
Completion: 0.345

Prompt: Next entry: COc1cc(C(=O)NCC2CCN(CC3CCN(c4ccc(NC5CCC(=O)NC5=O)cc4)CC3)CC2)ccc1Nc1ncc2c(n1)N(C1CCCC1)CC(F)(F)C(=O)N2C (centres unmarked)
Completion: 0.259

Prompt: Next entry: CC[C@@H]1C(=O)N(C)c2cnc(Nc3ccc(C(=O)NC4CCN(C(=O)CCN5CCN(c6ccc(NC7CCC(=O)NC7=O)cc6)CC5)CC4)cc3OC(F)(F)F)nc2N1C1CCCC1 (some centres unmarked)
Completion: 0.269
